- Tested on: UACC-257 melanoma
- protocol.description: NCI tumour cell line growth inhibition, 48 h
Where a SMILES comes first, the peptide text is derived from it. Bridges are numbered along the chain shown (N, C = ends). [ ]: non-standard residue; d: D form. The star is where a group is joined. Cya = N[CH](CS(=O)(=O)O)C(=O)O; X49 = CC(C)CCCCCCCC(O)CC(=O)*; GABA = NCCCC(=O)O
Listing: TGI of selected compounds

Below, each entry is followed by its recorded TGI result.
Prompt: Please list TGI recorded for the compound CCOC(=O)Nc1nc2cc(OC)c(OC)c(OC)c2s1
Response: > 100 µM

Prompt: Please list TGI recorded for the compound Cn1c(N)c(Cc2ccc(Cl)cc2)c(=O)[nH]c1=O
Response: > 100 µM

Prompt: Please list TGI recorded for the compound CC(C)CCCCCCCC(O)CC(=O)NC(CS(=O)(=O)O)C(=O)NC(CC(C)C)C(=O)NCCCC(=O)NC(Cc1cnc[nH]1)C(=O)NC(C)C(=O)NC1C(=O)NC(C(C)O)C(=O)NC(Cc2cnc[nH]2)C(=O)NC(C)C(=O)NC(C(C)O)C(=O)OC1C (stereo not given) (X49-[Cya]L[GABA]HATTHAT; ester 6-C; configuration not given here)
Response: > 25 µM

Prompt: Please list TGI recorded for the compound CC(=O)c1c(C)cn(S(=O)(=O)NC(=O)Nc2nncs2)c1C
Response: > 100 µM

Next, consider the following compound.
Prompt: Please list TGI recorded for the compound COC(=O)/C(=C(\C)NC(C)=O)c1c(C(=O)OC)[nH]c2ccccc12
Response: > 100 µM
